- targetEntity: HIS-tagged RORγ-LBD (Homo sapiens, UniProt P51449)
- Construct: HIS-tagged RORγ-LBD was recombinantly expressed in SF9 cells using a baculovirus expression system; made in house; host or cells: SF9 cells, baculovirus; crude lysate used
- Sequence (P51449 269-508 limits assumed): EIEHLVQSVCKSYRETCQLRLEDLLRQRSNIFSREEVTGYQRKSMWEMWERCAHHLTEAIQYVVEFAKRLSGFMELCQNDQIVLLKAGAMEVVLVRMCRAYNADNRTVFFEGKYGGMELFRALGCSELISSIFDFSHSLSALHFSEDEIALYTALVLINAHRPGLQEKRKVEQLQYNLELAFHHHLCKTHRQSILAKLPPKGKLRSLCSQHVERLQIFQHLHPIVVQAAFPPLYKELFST
- methodDescription: TR-FRET assay (Protocol B), RORγ-LBD lysate / biotinylated SRC1-2 LXXLL peptide
- Type: biochemical
- testContext: unpurified RORγ-LBD lysate ~10 nM, SRC1-2 peptide 450 nM
Below: a set of entries, each annotated with reported IC50.

Some compounds with recorded IC50:
compound	obsValue
O=C(O)Cc1cccc(-c2nn(C(=O)c3c(Cl)cccc3C(F)(F)F)c3cccc(F)c23)c1 [Example 24F]	500 to 10000 nM
NCc1ccc2c(-c3ccc(C(=O)O)cc3F)nn(C(=O)c3c(Cl)cccc3C(F)(F)F)c2c1 [Example 27B]	< 50 nM
CN(C)C(=O)c1ccc2c(-c3ccc(C(=O)O)c(O)c3)nn(C(=O)c3c(Cl)cccc3C(F)(F)F)c2c1 [Example 26J]	< 50 nM
O=C(c1c(Cl)cccc1C(F)(F)F)n1nc(-c2ccc(C(O)(C(F)(F)F)C(F)(F)F)cc2)c2ncccc21 [Example 24AE]	500 to 10000 nM
O=C(O)c1ccc(-c2nn(C(=O)c3c(Cl)cccc3C(F)(F)F)c3cc(CO)ccc23)c(F)c1 [Example 24BF]	< 50 nM

### Prompt # get_value(readout='IC50', item= COc1cccc(F)c1C(=O)n1nc(-c2ccc(C(=O)O)cc2)c2c(F)cccc21 [Example 24AB] )
### Response < 50 nM

### Prompt Also CN(C)C(=O)c1ccc2c(-c3ccc(C(=O)O)cc3Cl)nn(C(=O)c3c(Cl)cccc3C(F)(F)F)c2c1 [Example 25J] , if possible.
### Response < 50 nM
